Cited source for all entries: patent US20190135793A1

# TARGET_DESC: KDM4C (Homo sapiens)
# Construct: Full length of KDM5B and KDM4C protein were purchased from Active Motif; purchased Active Motif 31858
# Sequence (Q9H3R0 1-1056): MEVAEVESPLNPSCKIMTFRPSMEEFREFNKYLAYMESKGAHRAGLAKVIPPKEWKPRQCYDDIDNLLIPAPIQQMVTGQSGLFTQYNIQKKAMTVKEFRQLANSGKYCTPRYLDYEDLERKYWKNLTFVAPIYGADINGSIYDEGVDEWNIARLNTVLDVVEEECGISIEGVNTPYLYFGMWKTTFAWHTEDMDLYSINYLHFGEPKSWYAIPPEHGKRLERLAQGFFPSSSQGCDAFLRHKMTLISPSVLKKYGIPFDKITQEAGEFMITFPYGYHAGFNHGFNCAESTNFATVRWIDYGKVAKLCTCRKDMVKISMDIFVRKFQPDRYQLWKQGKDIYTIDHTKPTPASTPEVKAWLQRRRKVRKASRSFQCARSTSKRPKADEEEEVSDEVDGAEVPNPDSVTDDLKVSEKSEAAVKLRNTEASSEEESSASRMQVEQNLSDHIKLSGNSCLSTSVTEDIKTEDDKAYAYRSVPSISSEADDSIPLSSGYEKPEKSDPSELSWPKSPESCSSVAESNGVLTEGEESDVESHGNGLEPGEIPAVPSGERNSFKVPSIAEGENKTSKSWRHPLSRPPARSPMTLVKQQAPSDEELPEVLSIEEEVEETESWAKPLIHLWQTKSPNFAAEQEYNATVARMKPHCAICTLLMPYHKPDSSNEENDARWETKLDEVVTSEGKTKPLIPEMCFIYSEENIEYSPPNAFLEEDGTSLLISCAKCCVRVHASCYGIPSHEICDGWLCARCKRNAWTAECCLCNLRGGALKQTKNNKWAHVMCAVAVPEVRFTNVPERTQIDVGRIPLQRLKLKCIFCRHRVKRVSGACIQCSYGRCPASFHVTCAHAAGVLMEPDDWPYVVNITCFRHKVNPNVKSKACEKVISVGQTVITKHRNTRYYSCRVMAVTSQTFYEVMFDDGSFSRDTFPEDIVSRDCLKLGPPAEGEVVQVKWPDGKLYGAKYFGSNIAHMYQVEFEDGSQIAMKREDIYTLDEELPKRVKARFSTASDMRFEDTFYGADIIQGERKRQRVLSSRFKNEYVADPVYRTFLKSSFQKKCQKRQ
# PROTOCOL_TEXT: KDM4C AlphaScreen assay
# Format: biochemical
# CONDITION_SUMMARY: AlphaScreen; full length KDM4C 0.2 nM; biotinylated H3K9Me3 peptide 3 nM; 30 minutes at room temperature
I'd be grateful if you could share measured pIC50 for these entries.
Answers are plain numbers, as −log10 of the molar value.

CC(C)c1c(O)nc(-n2ccnc2)nc1OCCN1CCCCC1: 5.43
Cc1nc(-n2ccnc2)nc(O)c1C(C)C: 6.33
CC(C)c1c(O)nc(-n2ccnc2)nc1C#Cc1cccnc1 [Example 10a]: 6.04
CC(C)c1c(O)nc(-n2ccnc2)nc1-c1cnn(CC(=O)NCCN2CCCC2=O)c1: 5.81
CC(C)c1c(O)nc(-n2ccnc2)nc1OCCN(C)C: 6.01
CCn1cc(-c2nc(-n3ccnc3)nc(O)c2C(C)C)cn1: 5.93
CC(C)c1c(O)nc(-n2ccnc2)nc1-c1cccnc1: 5.58
CCCn1cc(-c2nc(-n3ccnc3)nc(O)c2C(C)C)cn1: 6.00

# batch size: 4; output pIC50 per entry
1. CC(C)c1c(O)nc(-n2ccnc2)nc1OCCC1CCOCC1
2. CC(C)c1c(O)nc(-n2ccnc2)nc1-c1cnn(CCN2CCOCC2)c1
3. CC(C)c1c(O)nc(-n2ccnc2)nc1-c1cccc(CNS(C)(=O)=O)c1
4. CC(C)c1c(O)nc(-c2cncs2)nc1OCc1ccccn1

[5.68, 5.61, 5.73, 4.68]
